- system.under.test: FSH receptor (Rattus norvegicus, UniProt P20395)
- Construct: endogenous in cells; host or cells: primary ovarian granulosa cells of DES-treated immature Sprague-Dawley rats
- Sequence (P20395 18-692): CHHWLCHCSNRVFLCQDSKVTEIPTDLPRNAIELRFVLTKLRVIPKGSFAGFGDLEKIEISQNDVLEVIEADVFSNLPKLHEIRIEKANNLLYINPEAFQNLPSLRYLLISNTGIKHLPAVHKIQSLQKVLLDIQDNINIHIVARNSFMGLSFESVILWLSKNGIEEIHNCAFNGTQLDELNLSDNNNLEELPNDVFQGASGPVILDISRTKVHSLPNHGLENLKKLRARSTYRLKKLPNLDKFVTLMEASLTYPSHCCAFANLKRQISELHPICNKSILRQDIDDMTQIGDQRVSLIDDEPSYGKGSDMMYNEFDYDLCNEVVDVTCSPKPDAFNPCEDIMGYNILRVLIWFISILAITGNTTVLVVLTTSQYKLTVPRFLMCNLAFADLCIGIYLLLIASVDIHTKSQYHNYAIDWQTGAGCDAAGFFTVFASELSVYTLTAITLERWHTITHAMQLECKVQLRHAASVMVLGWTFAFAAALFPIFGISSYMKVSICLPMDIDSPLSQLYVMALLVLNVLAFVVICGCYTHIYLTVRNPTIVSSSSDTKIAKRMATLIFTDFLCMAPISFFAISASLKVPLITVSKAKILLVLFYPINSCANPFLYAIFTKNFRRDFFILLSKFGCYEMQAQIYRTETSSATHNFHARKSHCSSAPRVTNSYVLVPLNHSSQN
- assay.notes: In Vitro Bio-test Procedure of Agonists and Antagonists to the FSH Receptor Using Primary Cultures of Rat Granulosa (estradiol secretion)
- Assay type: cell-based
readout.type: pIC50
One number for each entry, as −log10 of the molar value.

Answered examples (8):
>>> readout_value("CSc1ccc(C(=O)Nc2ccc(/C=C/c3ccc(NC(=O)c4ccc(S(C)(=O)=O)c([N+](=O)[O-])c4)cc3S(=O)(=O)O)c(S(=O)(=O)O)c2)cc1S(=O)(=O)N1CCOCC1 [Example 30e]")
5.74
>>> readout_value("CCS(=O)(=O)c1ccc(C(=O)Nc2ccc(/C=C/c3ccc(NC(=O)c4ccc(S(=O)(=O)CC)cc4)cc3S(=O)(=O)O)c(S(=O)(=O)O)c2)cc1 [Example 32f]")
5.55
>>> readout_value("O=C(Nc1ccc(/C=C/c2ccc(NC(=O)c3ccc(OC4CCOCC4)c(S(=O)(=O)N4CCOCC4)c3)cc2S(=O)(=O)O)c(S(=O)(=O)O)c1)c1ccc(OC2CCOCC2)c(S(=O)(=O)N2CCOCC2)c1 [Example 30r]")
5.96
>>> readout_value("COc1ccc(C(=O)Nc2ccc(/C=C/c3ccc(NC(=O)c4ccc(OC)c(S(=O)(=O)N5CCCC5)c4)cc3S(=O)(=O)O)c(S(=O)(=O)O)c2)cc1S(=O)(=O)N1CCCC1 [Example 33e]")
5.68
>>> readout_value("COc1ccc(C(=O)Nc2ccc(CCc3ccc(NC(=O)c4ccc(S(C)(=O)=O)cc4)cc3S(=O)(=O)O)c(S(=O)(=O)O)c2)cc1S(=O)(=O)N1CCOCC1 [Example 43a]")
4.77
>>> readout_value("COCCOc1ccc(C(=O)Nc2ccc(/C=C/c3ccc(NC(=O)c4ccc(OCCOC)c(S(=O)(=O)N5CCOCC5)c4)cc3S(=O)(=O)O)c(S(=O)(=O)O)c2)cc1S(=O)(=O)N1CCOCC1 [Example 30t]")
5.85
>>> readout_value("CS(=O)(=O)c1ccc(C(=O)Nc2ccc(/C=C/c3ccc(NC(=O)c4ccc(S(C)(=O)=O)c(S(=O)(=O)N5CCOCC5)c4)cc3S(=O)(=O)O)c(S(=O)(=O)O)c2)cc1S(=O)(=O)N1CCOCC1 [Example 30d]")
5.55
>>> readout_value("COCCOCCOc1ccc(C(=O)Nc2ccc(/C=C/c3ccc(NC(=O)c4ccc(OCCOCCOC)c(S(=O)(=O)N5CCOCC5)c4)cc3S(=O)(=O)O)c(S(=O)(=O)O)c2)cc1S(=O)(=O)N1CCOCC1 [Example 30a]")
5.72

Report pIC50 for every entry below.
1. COc1ccc(C(=O)Nc2ccc(/C=C/c3ccc(NC(=O)c4ccc(OC)c(S(=O)(=O)N5CCN(C(C)=O)CC5)c4)cc3S(=O)(=O)O)c(S(=O)(=O)O)c2)cc1S(=O)(=O)N1CCN(C(C)=O)CC1 [Example 34a]
2. COc1ccc(C(=O)Nc2ccc(/C=C/c3ccc(NC(=O)c4ccc(OC)c(S(=O)(=O)N5CCN(C=O)CC5)c4)cc3S(=O)(=O)O)c(S(=O)(=O)O)c2)cc1S(=O)(=O)N1CCN(C=O)CC1 [Example 34b]
3. CS(=O)(=O)c1ccc(C(=O)Nc2ccc(/C=C/c3ccc(NC(=O)c4ccc(S(C)(=O)=O)cc4)cc3S(=O)(=O)O)c(S(=O)(=O)O)c2)cc1 [Example 30q]
4. COc1ccc(C(=O)Nc2ccc(/C=C/c3ccc(NC(=O)c4ccc(OC)c(S(=O)(=O)N5CCS(=O)(=O)CC5)c4)cc3S(=O)(=O)O)c(S(=O)(=O)O)c2)cc1S(=O)(=O)N1CCS(=O)(=O)CC1 [Example 30k]
5. COc1ccc(C(=O)Nc2ccc(/C=C/c3ccc(NC(=O)c4ccc(OC)c(S(=O)(=O)N5CCOCC5)c4)cc3S(=O)(=O)O)c(S(=O)(=O)O)c2)cc1S(=O)(=O)N1CCOCC1 [Example 30s]
6. COCCNS(=O)(=O)c1cc(C(=O)Nc2ccc(/C=C/c3ccc(NC(=O)c4ccc(S(C)(=O)=O)c([N+](=O)[O-])c4)cc3S(=O)(=O)O)c(S(=O)(=O)O)c2)ccc1OC [Example 30f]

1. 4.24
2. 5.31
3. 5.89
4. 5.51
5. 5.92
6. 5.10

Please look at the items below and tell me pIC50 for each one, in order.
1. COCCNS(=O)(=O)c1cc(C(=O)Nc2ccc(/C=C/c3ccc(NC(=O)c4ccc(OC)c(S(=O)(=O)NCCOC)c4)cc3S(=O)(=O)O)c(S(=O)(=O)O)c2)ccc1OC [Example 30m]
2. COc1ccc(C(=O)Nc2ccc(/C=C/c3ccc(NC(=O)c4ccc(OC)c(S(=O)(=O)N5CCSCC5)c4)cc3S(=O)(=O)O)c(S(=O)(=O)O)c2)cc1S(=O)(=O)N1CCSCC1 [Example 33d]

1: 5.17; 2: 5.00
